Molecular target: T1, AFP158/HLA-A*02:01 complex (human)
T1 construct: flowed over the chip in SPR; also called AFP158 pro
Assay: SPR, KD ratio to AS170036 VL1VH1;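 also: crude scFv captured on a sensor chip, peptide–HLA complex passed over at several concentrations, association then buffer dissociation, KD derived from on- and off-rates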
measuredEndpoint: Affinity increase (fold)
Field: numeric (fold). Do not append units.

Input: Indicate its recorded Affinity increase; the binder in question is HF101W (scFv, AS170036 VL1VH1 scFv mutein) scFv: QSALTQPRSVSGSPGQSVTISCAGTSSDVGSENYVSWYQQHPGKAPKLMIYQVNKRASGVPDRFSGSKSGNTASLTISGLQAEDEADYYCASYRSSDHNIVFGGGTKLTVLGGGGSGGGGSGGGGSEVQLVESGGGLVQPGGSLRLSCAASGFTFSSYAMSWVRQAPGKGLEWVSTINSGTGSPYYADSVKGRFTISRDNSKNTLYLQMNSLRAEDTAVYYCAKNFWDGSWFLGPPAMDYWGQGTLVTVSSHHHHHH
Output: 0.8

Input: Give the value of Affinity increase reported for the following: HG56Q (scFv, AS170036 VL1VH1 scFv mutein) scFv: QSALTQPRSVSGSPGQSVTISCAGTSSDVGSENYVSWYQQHPGKAPKLMIYQVNKRASGVPDRFSGSKSGNTASLTISGLQAEDEADYYCASYRSSDHNIVFGGGTKLTVLGGGGSGGGGSGGGGSEVQLVESGGGLVQPGGSLRLSCAASGFTFSSYAMSWVRQAPGKGLEWVSTINSGTQSPYYADSVKGRFTISRDNSKNTLYLQMNSLRAEDTAVYYCAKNFFDGSWFLGPPAMDYWGQGTLVTVSSHHHHHH
Output: 1

Input: Supply measured Affinity increase of HG56R (scFv, AS170036 VL1VH1 scFv mutein) scFv: QSALTQPRSVSGSPGQSVTISCAGTSSDVGSENYVSWYQQHPGKAPKLMIYQVNKRASGVPDRFSGSKSGNTASLTISGLQAEDEADYYCASYRSSDHNIVFGGGTKLTVLGGGGSGGGGSGGGGSEVQLVESGGGLVQPGGSLRLSCAASGFTFSSYAMSWVRQAPGKGLEWVSTINSGTRSPYYADSVKGRFTISRDNSKNTLYLQMNSLRAEDTAVYYCAKNFFDGSWFLGPPAMDYWGQGTLVTVSSHHHHHH in your reply.
Output: 0.8
